Answer each item with its documented z-score of subpopulation abundance.
System: Saccharomyces cerevisiae BY4741 SeMeCo community
TEST PROTOCOL: z-score of subpopulation abundance vs DMSO median, subpopulation auxotrophic for LUM; higher = larger share of this subpopulation than in DMSO controls
MEASUREMENT CONDITIONS: 10 µM; 24 h; SM minimal medium; subpopulation (auxotrophy): LUM
Counter-ions that a name gives are not always drawn.
// no unit, no text: just the number

**Query** For the compound shown here, CC(=O)NO [Acetohydroxamic acid] , give the reported z-score of subpopulation abundance.
**Result** 1.04

**Query** For the compound shown here, CC(=O)OCC1=C(C(=O)O)N2C(=O)[C@@H](NC(=O)CSc3ccncc3)[C@H]2SC1 [Cephapirin Benzathine] , give the reported z-score of subpopulation abundance.
**Result** -0.22

**Query** For the compound shown here, CO[C@H]1C[C@@H]2CC[C@@H](C)[C@@](O)(O2)C(=O)C(=O)N2CCCC[C@H]2C(=O)O[C@H]([C@H](C)C[C@@H]2CC[C@@H](OCCO)[C@H](OC)C2)CC(=O)[C@H](C)/C=C(\C)[C@@H](O)[C@@H](OC)C(=O)[C@H](C)C[C@H](C)/C=C/C=C/C=C/1C [Everolimus (RAD001)] , give the reported z-score of subpopulation abundance.
**Result** 12.4

**Query** For the compound shown here, Nc1nc2c(ncn2COCCO)c(=O)[nH]1 [Aciclovir] , give the reported z-score of subpopulation abundance.
**Result** 0.25

**Query** For the compound shown here, O=c1n(CCCN2CCN(c3cccc(Cl)c3)CC2)nc2ccccn12 [Trazodone HCl] , give the reported z-score of subpopulation abundance.
**Result** -0.51

**Query** For the compound shown here, O=C1OCCN1/N=C/c1ccc([N+](=O)[O-])o1 [Furazolidone] , give the reported z-score of subpopulation abundance.
**Result** -2.42

**Query** For the compound shown here, CC[N+](C)(C)c1cccc(O)c1 [Edrophonium chloride] , give the reported z-score of subpopulation abundance.
**Result** 0.48

**Query** For the compound shown here, COc1cc2c(cc1OC)C(=O)C(CC1CCN(Cc3ccccc3)CC1)C2 (stereo not given) [Donepezil HCl] , give the reported z-score of subpopulation abundance.
**Result** -0.52

**Query** For the compound shown here, CN1CCC[C@@H]1Cc1c[nH]c2ccc(CCS(=O)(=O)c3ccccc3)cc12 [Eletriptan HBr] , give the reported z-score of subpopulation abundance.
**Result** -1.48

**Query** For the compound shown here, O=C(c1ccc(OCCN2CCCCC2)cc1)c1c(-c2ccc(O)cc2)sc2cc(O)ccc12 [Raloxifene HCl] , give the reported z-score of subpopulation abundance.
**Result** -0.24

**Query** For the compound shown here, C[C@@H](O)[C@H]1C(=O)N2C(C(=O)O)=C(S[C@@H]3CN[C@H](C(=O)N(C)C)C3)[C@H](C)[C@H]12 [Meropenem] , give the reported z-score of subpopulation abundance.
**Result** -0.39

**Query** For the compound shown here, C[C@]12CC[C@@H]3c4ccc(O)cc4CC[C@H]3[C@@H]1C[C@@H](O)[C@@H]2O [Estriol] , give the reported z-score of subpopulation abundance.
**Result** -0.23

**Query** For the compound shown here, N#Cc1ccc(Oc2ccc3c(c2)COB3O)cc1 [Crisaborole (AN2728)] , give the reported z-score of subpopulation abundance.
**Result** 3.54

**Query** For the compound shown here, c1cnc(N2CCN(Cc3ccc4c(c3)OCO4)CC2)nc1 [Piribedil] , give the reported z-score of subpopulation abundance.
**Result** 0.73

**Query** For the compound shown here, CO[C@H]1C[C@@H]2CC[C@@H](C)[C@@](O)(O2)C(=O)C(=O)N2CCCC[C@H]2C(=O)O[C@H]([C@H](C)C[C@@H]2CC[C@@H](OC(=O)C(C)(CO)CO)[C@H](OC)C2)CC(=O)[C@H](C)/C=C(\C)[C@@H](O)[C@@H](OC)C(=O)[C@H](C)C[C@H](C)/C=C/C=C/C=C/1C , give the reported z-score of subpopulation abundance.
**Result** 14.2
